SYSTEM TESTED: Vascular endothelial growth factor receptor 2 (Homo sapiens, UniProt P35968)
Sequence (P35968 whole entry): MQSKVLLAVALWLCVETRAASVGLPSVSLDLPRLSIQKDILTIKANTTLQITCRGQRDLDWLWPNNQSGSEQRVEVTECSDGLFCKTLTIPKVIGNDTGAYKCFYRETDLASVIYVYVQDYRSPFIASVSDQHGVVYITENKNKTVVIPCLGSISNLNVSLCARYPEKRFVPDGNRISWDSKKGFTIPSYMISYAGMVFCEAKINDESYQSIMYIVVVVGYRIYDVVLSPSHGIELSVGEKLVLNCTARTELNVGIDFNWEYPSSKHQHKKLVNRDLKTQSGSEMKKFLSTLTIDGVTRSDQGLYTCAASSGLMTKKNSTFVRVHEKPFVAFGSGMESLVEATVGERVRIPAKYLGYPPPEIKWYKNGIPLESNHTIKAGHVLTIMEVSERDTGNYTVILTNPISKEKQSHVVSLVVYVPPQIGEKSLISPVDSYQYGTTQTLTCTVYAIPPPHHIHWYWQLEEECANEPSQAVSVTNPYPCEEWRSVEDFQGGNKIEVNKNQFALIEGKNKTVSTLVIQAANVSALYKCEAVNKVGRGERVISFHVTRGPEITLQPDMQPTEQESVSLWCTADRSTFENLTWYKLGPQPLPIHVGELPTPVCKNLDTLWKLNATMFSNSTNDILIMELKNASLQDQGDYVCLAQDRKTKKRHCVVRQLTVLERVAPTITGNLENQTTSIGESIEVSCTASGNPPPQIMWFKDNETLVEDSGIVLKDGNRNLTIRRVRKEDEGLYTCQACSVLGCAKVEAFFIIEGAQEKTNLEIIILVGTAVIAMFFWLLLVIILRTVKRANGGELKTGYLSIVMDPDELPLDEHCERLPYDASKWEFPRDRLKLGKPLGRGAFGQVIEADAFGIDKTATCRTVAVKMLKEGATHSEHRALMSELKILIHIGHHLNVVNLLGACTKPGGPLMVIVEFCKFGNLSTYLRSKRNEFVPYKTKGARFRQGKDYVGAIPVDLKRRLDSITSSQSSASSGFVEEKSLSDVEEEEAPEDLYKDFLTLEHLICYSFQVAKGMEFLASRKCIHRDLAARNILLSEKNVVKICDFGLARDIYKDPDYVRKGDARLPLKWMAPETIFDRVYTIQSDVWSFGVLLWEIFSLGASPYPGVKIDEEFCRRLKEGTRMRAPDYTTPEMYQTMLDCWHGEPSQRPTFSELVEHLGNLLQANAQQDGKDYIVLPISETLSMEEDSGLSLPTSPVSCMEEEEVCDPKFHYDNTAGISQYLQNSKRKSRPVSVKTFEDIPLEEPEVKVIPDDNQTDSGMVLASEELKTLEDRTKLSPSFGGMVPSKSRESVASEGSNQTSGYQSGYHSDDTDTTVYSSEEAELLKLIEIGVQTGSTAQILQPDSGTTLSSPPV
pIC50: −log10 of the molar value.
EXPERIMENTAL READOUT: pIC50

• CCN(CC)CCOc1ccc(Nc2cc(NC(=O)Nc3c(Cl)cccc3Cl)ncn2)cc1 = 6.02

###

PROTOCOL DESCRIPTION: Inhibition of p38 kinase
pIC50: −log10 of the molar value.
EXPERIMENTAL READOUT: pIC50

* CCN(CC)CCOc1ccc(Nc2cc(NC(=O)Nc3c(Cl)cccc3Cl)ncn2)cc1 | 6.46

###

SYSTEM TESTED: Tyrosine-protein kinase receptor UFO (Homo sapiens)
pIC50: −log10 of the molar value.
EXPERIMENTAL READOUT: pIC50

• CCN(CC)CCOc1ccc(Nc2cc(NC(=O)Nc3c(Cl)cccc3Cl)ncn2)cc1 = < 5.00

###

SYSTEM TESTED: Ephrin type-B receptor 4 (Homo sapiens, UniProt P54760)
Sequence (P54760 whole entry): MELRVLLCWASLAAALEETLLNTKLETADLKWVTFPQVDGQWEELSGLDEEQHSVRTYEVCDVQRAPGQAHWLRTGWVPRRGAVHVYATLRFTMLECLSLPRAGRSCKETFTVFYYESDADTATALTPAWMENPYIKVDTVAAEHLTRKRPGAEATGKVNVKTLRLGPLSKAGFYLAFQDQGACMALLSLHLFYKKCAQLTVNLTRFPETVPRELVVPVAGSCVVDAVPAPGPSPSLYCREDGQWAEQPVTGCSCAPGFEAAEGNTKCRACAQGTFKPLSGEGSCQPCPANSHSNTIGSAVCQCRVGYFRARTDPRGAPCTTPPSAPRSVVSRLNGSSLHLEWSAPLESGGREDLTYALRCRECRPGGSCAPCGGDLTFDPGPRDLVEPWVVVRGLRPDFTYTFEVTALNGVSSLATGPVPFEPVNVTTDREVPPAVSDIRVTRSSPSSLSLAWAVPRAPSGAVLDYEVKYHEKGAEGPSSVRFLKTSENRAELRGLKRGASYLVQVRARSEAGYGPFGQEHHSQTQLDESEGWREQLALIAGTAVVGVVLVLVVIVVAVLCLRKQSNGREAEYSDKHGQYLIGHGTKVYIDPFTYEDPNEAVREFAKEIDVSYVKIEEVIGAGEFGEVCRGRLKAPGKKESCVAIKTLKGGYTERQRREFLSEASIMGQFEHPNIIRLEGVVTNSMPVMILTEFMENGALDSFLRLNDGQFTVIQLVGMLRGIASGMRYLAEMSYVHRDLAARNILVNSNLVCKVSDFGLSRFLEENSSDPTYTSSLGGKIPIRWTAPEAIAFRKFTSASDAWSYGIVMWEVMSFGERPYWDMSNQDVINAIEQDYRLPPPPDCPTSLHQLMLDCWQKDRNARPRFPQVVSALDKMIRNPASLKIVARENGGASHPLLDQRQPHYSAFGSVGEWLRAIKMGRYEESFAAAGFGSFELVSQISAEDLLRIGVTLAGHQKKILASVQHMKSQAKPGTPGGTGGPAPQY
PROTOCOL DESCRIPTION: Inhibition of EphB4
EXPERIMENTAL READOUT: IC50 (µM)

* CCN(CC)CCOc1ccc(Nc2cc(NC(=O)Nc3c(Cl)cccc3Cl)ncn2)cc1 | 0.43

###

SYSTEM TESTED: RAC-alpha serine/threonine-protein kinase (Homo sapiens, UniProt P31749)
EXPERIMENTAL READOUT: IC50

• CCN(CC)CCOc1ccc(Nc2cc(NC(=O)Nc3c(Cl)cccc3Cl)ncn2)cc1 = > 10 µM

###

SYSTEM TESTED: Serine/threonine-protein kinase B-raf (Homo sapiens, UniProt P15056, V600E)
Sequence (P15056 2-766 V600E limits assumed): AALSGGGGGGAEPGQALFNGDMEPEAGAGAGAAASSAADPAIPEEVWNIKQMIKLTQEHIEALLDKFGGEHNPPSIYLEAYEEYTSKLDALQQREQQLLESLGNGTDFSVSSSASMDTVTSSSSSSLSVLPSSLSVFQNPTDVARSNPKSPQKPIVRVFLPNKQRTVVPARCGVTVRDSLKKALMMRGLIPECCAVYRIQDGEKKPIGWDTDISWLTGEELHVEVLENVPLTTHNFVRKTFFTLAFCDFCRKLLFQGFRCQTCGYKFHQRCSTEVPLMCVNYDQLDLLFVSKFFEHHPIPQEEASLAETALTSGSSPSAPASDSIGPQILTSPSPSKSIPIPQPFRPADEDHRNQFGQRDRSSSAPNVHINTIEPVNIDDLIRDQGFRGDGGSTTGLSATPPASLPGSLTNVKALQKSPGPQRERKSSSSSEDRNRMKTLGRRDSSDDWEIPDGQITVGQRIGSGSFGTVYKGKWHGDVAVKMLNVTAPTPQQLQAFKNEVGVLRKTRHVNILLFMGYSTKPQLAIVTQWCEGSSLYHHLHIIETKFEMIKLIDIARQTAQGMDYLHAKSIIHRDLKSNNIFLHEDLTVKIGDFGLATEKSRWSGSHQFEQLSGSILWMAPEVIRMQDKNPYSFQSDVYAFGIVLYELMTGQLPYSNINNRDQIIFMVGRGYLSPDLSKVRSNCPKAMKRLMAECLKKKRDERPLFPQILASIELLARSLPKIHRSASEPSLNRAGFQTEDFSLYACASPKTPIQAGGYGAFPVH
PROTOCOL DESCRIPTION: Inhibition of bRaf V599E mutant
EXPERIMENTAL READOUT: IC50 (nM)

- CCN(CC)CCOc1ccc(Nc2cc(NC(=O)Nc3c(Cl)cccc3Cl)ncn2)cc1: 150

###

SYSTEM TESTED: Proto-oncogene tyrosine-protein kinase Src (Homo sapiens)
Sequence (P12931 2-536 limits assumed): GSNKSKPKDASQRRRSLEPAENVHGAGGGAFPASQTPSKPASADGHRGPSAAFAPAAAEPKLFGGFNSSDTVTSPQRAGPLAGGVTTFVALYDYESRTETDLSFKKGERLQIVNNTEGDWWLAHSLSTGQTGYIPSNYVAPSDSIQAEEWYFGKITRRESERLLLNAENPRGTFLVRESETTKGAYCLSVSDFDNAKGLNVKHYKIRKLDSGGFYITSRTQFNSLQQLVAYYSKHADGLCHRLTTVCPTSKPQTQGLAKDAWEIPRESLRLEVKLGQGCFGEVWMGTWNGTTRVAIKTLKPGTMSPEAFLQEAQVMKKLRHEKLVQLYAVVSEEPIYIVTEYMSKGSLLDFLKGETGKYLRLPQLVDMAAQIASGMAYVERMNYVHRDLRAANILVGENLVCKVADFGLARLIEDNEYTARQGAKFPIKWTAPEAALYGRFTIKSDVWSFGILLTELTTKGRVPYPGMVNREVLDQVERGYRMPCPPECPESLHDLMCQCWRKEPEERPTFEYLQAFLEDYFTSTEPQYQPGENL
EXPERIMENTAL READOUT: IC50

* CCN(CC)CCOc1ccc(Nc2cc(NC(=O)Nc3c(Cl)cccc3Cl)ncn2)cc1 | 66 nM

###

SYSTEM TESTED: Cyclin-dependent kinase 2 (Homo sapiens, UniProt P24941)
EXPERIMENTAL READOUT: IC50

* CCN(CC)CCOc1ccc(Nc2cc(NC(=O)Nc3c(Cl)cccc3Cl)ncn2)cc1 | > 10 µM

###

SYSTEM TESTED: Tyrosine-protein kinase ABL1 (Homo sapiens, UniProt P00519)
Sequence (P00519 whole entry): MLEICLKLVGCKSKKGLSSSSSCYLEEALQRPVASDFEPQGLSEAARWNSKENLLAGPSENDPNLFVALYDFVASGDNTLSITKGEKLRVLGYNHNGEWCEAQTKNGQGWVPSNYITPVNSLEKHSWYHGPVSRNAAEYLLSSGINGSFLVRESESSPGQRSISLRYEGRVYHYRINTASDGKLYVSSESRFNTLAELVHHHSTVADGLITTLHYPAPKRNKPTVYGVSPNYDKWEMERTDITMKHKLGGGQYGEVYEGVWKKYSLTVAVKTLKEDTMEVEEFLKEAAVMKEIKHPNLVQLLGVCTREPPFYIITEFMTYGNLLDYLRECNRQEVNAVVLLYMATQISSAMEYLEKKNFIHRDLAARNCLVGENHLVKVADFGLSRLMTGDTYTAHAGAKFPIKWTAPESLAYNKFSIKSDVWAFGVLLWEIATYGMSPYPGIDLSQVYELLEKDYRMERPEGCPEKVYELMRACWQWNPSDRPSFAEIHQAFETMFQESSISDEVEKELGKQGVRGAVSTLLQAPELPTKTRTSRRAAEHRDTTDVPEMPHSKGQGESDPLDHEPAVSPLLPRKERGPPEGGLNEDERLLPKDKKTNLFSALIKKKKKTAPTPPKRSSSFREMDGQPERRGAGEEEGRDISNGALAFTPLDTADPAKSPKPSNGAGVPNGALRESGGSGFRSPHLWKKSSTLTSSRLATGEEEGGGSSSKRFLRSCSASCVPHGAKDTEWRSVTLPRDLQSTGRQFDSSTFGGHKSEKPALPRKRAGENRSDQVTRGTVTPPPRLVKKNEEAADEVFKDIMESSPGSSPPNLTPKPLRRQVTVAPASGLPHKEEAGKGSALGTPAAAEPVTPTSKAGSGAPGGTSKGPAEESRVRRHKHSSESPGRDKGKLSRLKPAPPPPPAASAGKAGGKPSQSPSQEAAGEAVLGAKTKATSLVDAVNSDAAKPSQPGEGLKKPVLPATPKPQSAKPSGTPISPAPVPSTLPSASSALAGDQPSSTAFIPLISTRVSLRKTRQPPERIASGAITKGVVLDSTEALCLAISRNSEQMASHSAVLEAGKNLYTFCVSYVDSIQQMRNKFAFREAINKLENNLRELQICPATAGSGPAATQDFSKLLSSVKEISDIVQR
EXPERIMENTAL READOUT: IC50

* CCN(CC)CCOc1ccc(Nc2cc(NC(=O)Nc3c(Cl)cccc3Cl)ncn2)cc1 | 250 nM

###

SYSTEM TESTED: Angiopoietin-1 receptor (Homo sapiens)
Sequence (Q02763 whole entry): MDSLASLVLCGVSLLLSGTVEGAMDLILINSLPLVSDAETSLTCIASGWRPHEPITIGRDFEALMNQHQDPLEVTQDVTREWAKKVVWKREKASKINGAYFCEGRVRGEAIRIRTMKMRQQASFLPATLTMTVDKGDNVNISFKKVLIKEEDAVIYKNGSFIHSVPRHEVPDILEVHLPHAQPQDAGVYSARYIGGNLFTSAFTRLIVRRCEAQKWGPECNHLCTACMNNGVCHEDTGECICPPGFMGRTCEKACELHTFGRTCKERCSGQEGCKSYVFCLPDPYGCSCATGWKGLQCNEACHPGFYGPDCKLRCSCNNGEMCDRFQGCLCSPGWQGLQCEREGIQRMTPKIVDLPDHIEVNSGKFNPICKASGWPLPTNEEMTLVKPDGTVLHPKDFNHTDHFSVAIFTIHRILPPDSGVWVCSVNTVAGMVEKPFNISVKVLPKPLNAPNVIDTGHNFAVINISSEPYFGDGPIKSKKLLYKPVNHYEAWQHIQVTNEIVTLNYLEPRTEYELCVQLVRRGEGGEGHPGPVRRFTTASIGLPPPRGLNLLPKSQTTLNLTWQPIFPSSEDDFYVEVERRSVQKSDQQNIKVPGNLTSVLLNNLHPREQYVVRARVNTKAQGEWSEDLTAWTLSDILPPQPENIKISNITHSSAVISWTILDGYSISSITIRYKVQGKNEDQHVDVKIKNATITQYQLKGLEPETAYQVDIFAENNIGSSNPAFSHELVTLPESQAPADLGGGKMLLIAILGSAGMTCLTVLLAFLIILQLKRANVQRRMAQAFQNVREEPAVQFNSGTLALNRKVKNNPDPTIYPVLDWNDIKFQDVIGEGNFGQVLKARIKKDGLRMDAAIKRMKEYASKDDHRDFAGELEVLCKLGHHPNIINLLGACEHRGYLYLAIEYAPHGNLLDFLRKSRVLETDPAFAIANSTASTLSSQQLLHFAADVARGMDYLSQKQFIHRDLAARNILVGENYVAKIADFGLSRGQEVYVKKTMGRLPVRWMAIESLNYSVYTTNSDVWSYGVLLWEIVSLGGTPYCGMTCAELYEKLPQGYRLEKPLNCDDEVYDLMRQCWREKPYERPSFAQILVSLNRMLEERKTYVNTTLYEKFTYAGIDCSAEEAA
pIC50: −log10 of the molar value.
EXPERIMENTAL READOUT: pIC50

* CCN(CC)CCOc1ccc(Nc2cc(NC(=O)Nc3c(Cl)cccc3Cl)ncn2)cc1 | 6.52
